Catalogue of IC50 readings, one per entry.
# Test system: SF-268 (Glioma)
# testSummary: Sulforhodamine B (SRB) cytotoxicity test
# Assay type: cell-based
# testConditions: cells cultured 3 days with compound, read-out: Half Inhibitory Concentration for Bacterial Growth (IC50)
Field format: number, assumed nM, no unit text.

>  <molecule>
C/C1=C/C[C@@H](/C(C)=C/c2csc(C)n2)OC(=O)C[C@H](O)C(C)(C)C(=O)[C@H](C)[C@@H](O)[C@@H](C)CCC1 [Epo D, Epothilone D, reference compound]

>  <uom>
nM

>  <IC50>
18

$$$$

Then there is this molecule:
Query :: // query IC50 value for entry C/C(=C\c1csc(C)n1)[C@@H]1C[C@@H]2O[C@]2(C)CCC[C@H](C)[C@H](O)[C@@H](C)C(=O)C(C)(C)[C@@H](O)CC(=O)O1 [Epo B, Epothilone B, reference compound]
Result :: 0.8

---

# Tested on: NCI/ADR-RES (MDR Breast Cancer)
# testSummary: Sulforhodamine B (SRB) cytotoxicity test
# Format: cell-based
# testConditions: Homo sapiens, 72 h, cells cultured 3 days with compound, read-out: Half Inhibitory Concentration for Tumor Cell Growth (IC50)
recordedMetric: pIC50
Lab note — pIC50 values are minus log10 of concentrations in M.

Query :: Please tell me: pIC50 of COC1/C=C(/C)CCC[C@H](C)[C@H](O)[C@@H](C)C(=O)C(C)[C@@H](O)CC(=O)O[C@@H]1/C(C)=C/c1csc(C)n1 (stereo partly shown) , system NCI/ADR-RES (MDR Breast Cancer)?
Result :: 8.15

---

# Tested on: MCF-7 (Breast Cancer)
# testSummary: Sulforhodamine B (SRB) cytotoxicity test
# Format: cell-based
# testConditions: cells cultured 3 days with compound, read-out: Half Inhibitory Concentration for Tumor Cell Growth (IC50)
# Procedure: Sulforhodamine B (SRB) test was used for screening the selective compounds of the present invention according to their anti-tumor activity on four different tumor cell lines. In SRB analysis, the cultured cells were trypsinized, counted and diluted to a suitable concentration (5000-7500 cells/100 μl) with a culture medium. […] The amount of the bound dye was calculated from OD value detected at the wavelength of 515 nm. […] Epothilones D and B were detected in parallel for Comparison. […]
# IC50 listing for each entry below
Express the result in nM but write the number alone.

Query :: // lookup IC50 for C/C1=C/C[C@@H](/C(C)=C/c2csc(C)n2)OC(=O)C[C@H](O)C(C)(C)C(=O)[C@H](C)[C@@H](O)[C@@H](C)CCC1 [Epo D, Epothilone D, reference compound]
Result :: 13

Query :: Dear colleague, I am looking for the recorded IC50 of the following compound: C/C(=C\c1csc(C)n1)[C@@H]1C[C@@H]2O[C@]2(C)CCC[C@H](C)[C@H](O)[C@@H](C)C(=O)C(C)(C)[C@@H](O)CC(=O)O1 [Epo B, Epothilone B, reference compound]
Result :: 0.5
